So I've got a bunch of molecules here, and I need their Precipitate concentration [mM] Dy values.
- assay_name: Use of additives to improve separation of Nd/Dy mixture by precipitation with L5 (Example 18)
- Format: physicochemical
- recorded_conditions: additive 50 mM; 11 mM L5
Give bare numbers, in mM.

In [3]: df
Out[3]:
            molecule                 attribute_measured  experimental_result
0  CC(=O)O [acetate]  Precipitate concentration [mM] Dy                 2.43
1     O=CO [formate]  Precipitate concentration [mM] Dy                 4.33
2     O=C(O)c1ccccc1  Precipitate concentration [mM] Dy                 1.81

So, "NCC(=O)O" ? Its Precipitate concentration [mM] Dy was 3.60

----------
- assay_name: Use of additives to improve separation of Nd/Dy mixture by precipitation with L5 (Example 18)
- Format: physicochemical
- recorded_conditions: additive 20 mM; 11 mM L5
Please go through the items and note down their Precipitate concentration [mM] Nd.
Phrase the answer as number then unit, nothing more needed.

Sample records with Precipitate concentration [mM] Nd:
>>> print(df.to_string())
                                   compound  experimental_result
0  O=C(O)[C@@H](O)c1ccccc1 [s-mandelic acid]              4.52 mM
1        OB(O)c1ccccc1 [phenylboronic acid]              5.02 mM
2  CC(C)(O)C(=O)O [α-HIBA, alpha-hydroxyisobutyric acid]              3.78 mM
3             O=C(O)c1ccccc1 [benzoic acid]              4.94 mM
4      O=C(O)CC(O)(CC(=O)O)C(=O)O [citrate]              4.08 mM

Kindly give each listed record's Precipitate concentration [mM] Nd.
1. c1ccncc1 [pyridine]
2. O=C(O)c1cccc(C(=O)O)n1 [dipicolinic acid]
3. O=C(O)c1ccccn1 [picolinic acid]
4. O=C(O)CO [glycolate]

4.90 mM
2.66 mM
0 mM
4.33 mM

# map each compound to its Precipitate concentration [mM] Nd
1. C[C@H](O)C(=O)O [l-lactate]
2. O=C(O)c1ccccc1O [salicylic acid]

4.33 mM
4.88 mM

----------
- assay_name: Use of additives to improve separation of Nd/Dy mixture by precipitation with L5 (Example 18)
- Assay type: physicochemical
- recorded_conditions: additive 20 mM; 11 mM L5
attribute_measured: Precipitate concentration [mM] Dy (mM)
One number for each entry, in mM.

                               compound  result_unit  experimental_result
0                  O=C(O)CO [glycolate]           mM                 0.82
1       O=C(O)c1ccccn1 [picolinic acid]           mM                    0
2                   c1ccncc1 [pyridine]           mM                 4.33
3  O=C(O)CC(O)(CC(=O)O)C(=O)O [citrate]           mM                 1.21

I need Precipitate concentration [mM] Dy for every entry listed below, if you could help.
1. O=C(O)c1ccccc1 [benzoic acid]
2. C[C@H](O)C(=O)O [l-lactate]
3. CC(C)(O)C(=O)O [α-HIBA, alpha-hydroxyisobutyric acid]

1. 3.83
2. 1.18
3. 0.81

----------
- assay_name: Use of additives to improve separation of Nd/Dy mixture by precipitation with L5 (Example 18)
- Format: physicochemical
- recorded_conditions: additive 200 mM; 11 mM L5
attribute_measured: Supernatant concentration [mM] Dy (mM)
Numbers only, in mM.

Here are 4 molecules together with their reported answers.
In [3]: df
Out[3]:
                      molecule  result_unit  experimental_result
0           NCC(=O)O [glycine]           mM                 2.85
1  N#C[S-].[Na+] [thiocyanate]           mM                 0.51
2                Cl [chloride]           mM                 0.22
3      O=[N+]([O-])O [nitrate]           mM                 0.41

# evaluate next
// field: Supernatant concentration [mM] Dy; key: O=C(O)c1ccccc1 [benzoic acid] ; value = 4.20

----------
Consider the following compounds; for each one, report its Precipitate concentration [mM] Nd.
- assay_name: Use of additives to improve separation of Nd/Dy mixture by precipitation with L5 (Example 18)
- Assay type: physicochemical
- recorded_conditions: additive 1000 mM; 11 mM L5
Numbers only, in mM.

Observe how each entry below is paired with its result.
In [3]: df
Out[3]:
                  compound  result_unit  experimental_result
0            Cl [chloride]           mM                 4.97
1    O=S(=O)(O)O [sulfate]           mM                 4.61
2  O=[N+]([O-])O [nitrate]           mM                 4.61

// switching to the query compound
Lab book: Precipitate concentration [mM] Nd of N#C[S-].[Na+] [thiocyanate] noted as 4.63

----------
- assay_name: Use of additives to improve separation of Nd/Dy mixture by precipitation with L5 (Example 18)
- Format: physicochemical
- recorded_conditions: additive 50 mM; 11 mM L5
- Protocol: Stock solutions were pipetted into plastic 1×1 cm cuvettes to prepare reaction mixtures with concentrations as follows: • 1. […] 5 mM NdCl3 • 3. 5 mM DyCl3 • 4. […] These aqueous reaction mixtures, each prepared to a total volume of 2.0 mL with the addition of water as necessary, were mixed by the use of a PTFE-coated stir bar on a magnetic stirrer. […] The absolute concentration of Nd and Dy in each supernatant and precipitate was determined by ICP-OES.
attribute_measured: Supernatant concentration [mM] Dy (mM)
Give bare numbers, in mM.

// worked examples, Supernatant concentration [mM] Dy included
            compound                 attribute_measured  result_unit  experimental_result
0  CC(=O)O [acetate]  Supernatant concentration [mM] Dy           mM                 3.05
1     O=C(O)c1ccccc1  Supernatant concentration [mM] Dy           mM                 2.69
2     O=CO [formate]  Supernatant concentration [mM] Dy           mM                 0.51

// field: Supernatant concentration [mM] Dy; key: "NCC(=O)O" ; value = 1.01

----------
- assay_name: Use of additives to improve separation of Nd/Dy mixture by precipitation with L5 (Example 18)
- Format: physicochemical
- recorded_conditions: additive 20 mM; 11 mM L5
attribute_measured: Supernatant concentration [mM] Nd
Hi, when you answer, please include the unit after the number. Thanks!

>>> print(df.to_string())
                 compound  experimental_result
0  O=C(O)c1cccc(C(=O)O)n1              2.21 mM
1           OB(O)c1ccccc1              0.08 mM
2          O=C(O)c1ccccc1              0.13 mM
3                c1ccncc1              0.06 mM
4    O=C(O)CO [glycolate]              0.64 mM

Give Supernatant concentration [mM] Nd for all compounds that follow.
1. O=C(O)c1ccccn1
2. O=C(O)[C@@H](O)c1ccccc1
3. O=C(O)c1ccccc1O
4. O=C(O)CC(O)(CC(=O)O)C(=O)O [citrate]
5. CC(C)(O)C(=O)O [α-HIBA, alpha-hydroxyisobutyric acid]
6. C[C@H](O)C(=O)O [l-lactate]

1. 5 mM
2. 0.47 mM
3. 0.07 mM
4. 0.66 mM
5. 0.60 mM
6. 0.50 mM

----------
- assay_name: Use of additives to improve separation of Nd/Dy mixture by precipitation with L5 (Example 18)
- Format: physicochemical
- recorded_conditions: additive 5 mM; 11 mM L5
attribute_measured: Supernatant concentration [mM] Nd (mM)
One number for each entry, in mM.

                                   compound  experimental_result
0  CC(C)(O)C(=O)O [α-HIBA, alpha-hydroxyisobutyric acid]                 0.10
1                      O=C(O)CO [glycolate]                 0.09
2               C[C@H](O)C(=O)O [l-lactate]                 0.51
3      O=C(O)CC(O)(CC(=O)O)C(=O)O [citrate]                 0.19

# input for lookup
Short answer for F [fluoride] : Supernatant concentration [mM] Nd was 0.13
